Measured protein stability index of individual entries
B1: C9orf9 (parent)
chain: TKHKCRQLTKASLKPRGCSKPPWR

# Variants of: B1
# Measurement notes: protein stability index of a GFP-peptide fusion (GPS, HEK-293T) (PSI 1-6); higher = more stable;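 also: lentivirally expressed fusions sorted by FACS into six bins by GFP to DsRed ratio, PSI derived from sequencing read proportions per bin multiplied by bin number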
# Measurement setup: c terminus: a fixed tail appended

{"columns": ["Sequence content", "Metric name", "Result"],
 "data": [
  ["TKHKCRQLTKASLKPRGCSKPAWR [P22A]", "protein stability index", 2.97],
  ["TKHKCRQLTKASLKPRGCSKPSWR [P22S]", "protein stability index", 3.14],
  ["TKHKCRQLTKASLKPRGCSGPPWR [K20G]", "protein stability index", 2.64],
  ["TKHKCRQLTKASLKPRGCSKMPWR [P21M]", "protein stability index", 2.64],
  ["TKHKCRQLTKASLKPRGCSKPKWR [P22K]", "protein stability index", 3.03]
]}

Enquiry: Endpoint output: protein stability index of TKHKCRQLTKASLKPRGCSVPPWR [K20V] . Value?
Return: 2.2

Enquiry: Same again, this time with TTHKCRQLTKASLKPRGCSKPPWR [K2T]
Return: 2.27

Enquiry: Also TKHKCRQLTKASLKPRGCSKPPWQ [R24Q] , if possible.
Return: 2.2

Enquiry: Another variant: TKHKCRQLTLASLKPRGCSKPPWR [K10L]
Return: 2.21

Enquiry: Another variant: TKHKCRQLTKASLKDRGCSKPPWR [P15D]
Return: 3.17

Enquiry: Follow-up entry: TKHKCRQLTKASLKPRGCFKPPWR [S19F]
Return: 2.33

Enquiry: Next variant: TKHKCRQLTKASLKPRWCSKPPWR [G17W]
Return: 1.92

Enquiry: Please do the same for TKHKCRQLKKASLKPRGCSKPPWR [T9K] as well.
Return: 3.57

Enquiry: TKHKCRQLTKASLKNRGCSKPPWR [P15N] ?
Return: 2.86

Enquiry: Record: TKHKCRQLTKASLKPRFCSKPPWR [G17F]
Return: 2.23

Enquiry: What do you have for TKHKERQLTKASLKPRGCSKPPWR [C5E] ?
Return: 3.12

Enquiry: Next variant: PKHKCRQLTKASLKPRGCSKPPWR [T1P]
Return: 3.06

Enquiry: Now consider TKHKCRQLTKYSLKPRGCSKPPWR [A11Y] and answer again.
Return: 2.48

Enquiry: And for TKHKCRQLTKASLKPRECSKPPWR [G17E] ?
Return: 3.49

Enquiry: Repeat with TKHKCRQLTKASLKMRGCSKPPWR [P15M]
Return: 2.32

Enquiry: Another variant: TKHKCRQLTKISLKPRGCSKPPWR [A11I]
Return: 2.29

Enquiry: Param item: TKHKCRQLTKASLKPRGVSKPPWR [C18V]
Return: 2.1

Enquiry: What about TKHKQRQLTKASLKPRGCSKPPWR [C5Q] ?
Return: 3.33
